Data origin, for the record: patent US20250074980A1

Molecular target: T1, His-tagged CEACAM1 (human, UniProt P13688 35-428)
T1 construct: 45 kDa SPR analyte; also called CEACAM1-HIS; CEACAM1 analyte
T1 sequence: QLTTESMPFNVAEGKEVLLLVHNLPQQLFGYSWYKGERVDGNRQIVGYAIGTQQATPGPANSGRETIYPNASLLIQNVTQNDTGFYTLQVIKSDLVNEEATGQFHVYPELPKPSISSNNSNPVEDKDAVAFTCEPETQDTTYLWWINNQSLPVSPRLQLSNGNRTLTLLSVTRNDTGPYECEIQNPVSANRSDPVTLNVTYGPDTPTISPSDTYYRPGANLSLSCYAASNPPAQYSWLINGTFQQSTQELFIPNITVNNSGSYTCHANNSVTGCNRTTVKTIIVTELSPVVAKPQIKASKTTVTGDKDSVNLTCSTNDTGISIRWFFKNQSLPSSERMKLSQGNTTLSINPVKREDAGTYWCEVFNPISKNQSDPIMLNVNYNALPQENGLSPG
Assay: SPR single-cycle, supernatant IgG captured
Assay Readout: koff

| Binder | Observed |
| --- | --- |
| 9B3_9E5/Vκ8 S29A (antibody, IgG4, V domains shown, IgG4 (S241P), kappa) VH: EVQLLESGGGLVQPGGSLRLSCAASGFTFNAHAISWVRQAPGKGLEWVATISSGGTYTYYPDSVKGRFTISRDNSKNTLYLQMNSLKAEDTAMYYCARHGFDYDAAWFAYWGQGTLVTVSS VL: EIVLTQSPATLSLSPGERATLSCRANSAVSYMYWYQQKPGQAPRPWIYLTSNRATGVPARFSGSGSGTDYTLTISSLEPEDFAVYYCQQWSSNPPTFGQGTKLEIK | 0.021 s⁻¹ |
